Experiment: FXN promoter activators, primary screen, cell-based, luciferase luminescence, HEK293 lucGAA850 (AID 540364);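 also: 0% = DMSO wells and 100% = 10 µM SAHA wells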
Conditions: HEK293 lucGAA850 FXN promoter luciferase reporter, 24 h; at 6 µM; percent of 10 µM SAHA response
Among all 360,000 compounds or so, about 2,000 (0.56%) were called active.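 The calls were made as follows: active = activation above the average of all compounds screened plus 3 SD, cutoff fixed separately per campaign (cut at about 7.5% in these data); inactive = the rest.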 The sample as a whole holds a higher share of actives than the screen did.
Select the matching outcome among true (active), false (inactive)

Ask: Outcome? CC(=O)N1CCN(c2ccc(NCc3ccc(C(C)C)cc3)cc2)CC1
Result: false

Ask: Outcome? O=C(Nc1nnc(S(=O)(=O)N2CCOCC2)s1)c1cccc(Br)c1
Result: false

* * *

I'd appreciate it if you could supply activation values for the items below.
Experiment: FXN promoter activators, primary screen, cell-based, luciferase luminescence, HEK293 lucGAA850 (AID 540364);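 also: 0% = DMSO wells and 100% = 10 µM SAHA wells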
Settings: HEK293 lucGAA850 FXN promoter luciferase reporter, 24 h; at 6 µM; active compounds read high; percent of 10 µM SAHA response
Hit rate of the full screen: of about 360,000 compounds, about 2,000 (0.56%) were called active. The full list was thinned out, with actives kept by preference.
One number for each entry, in %.

Look over these answered cases.
{"columns": ["COMPOUND", "UNIT TAG", "activation"],
 "data": [
  ["O=C(CC1NCCNC1=O)Nc1cc(Cl)cc(Cl)c1 (configuration not stated)", "%", 1.12],
  ["O=C(CC1C(=O)NCCN1C(=O)c1ccc([N+](=O)[O-])cc1)Nc1cccc(Cl)c1 (configuration not stated)", "%", 0.62],
  ["Cc1c(NC(=O)CSc2cccc3cccnc23)c(=O)n(-c2ccccc2)n1C", "%", 2.68],
  ["NC(=S)NN=C1CCCC(C(F)(F)F)C1 (configuration not stated)", "%", -0.39],
  ["CN(C)[C@@H]1C(=O)C(C(N)=O)=C(O)[C@@]2(O)C(=O)C3=C(O)c4c(O)ccc(Cl)c4[C@@H](O)[C@H]3C[C@@H]12", "%", 13.6],
  ["CCN(CC)CCN1C(=O)C2C(C(=O)Nc3ccc(Br)cc3)C3C=CC2(O3)C1C(=O)NC1CCCCC1 (configuration not stated)", "%", -1.41]
]}

Next compound, please.
Ask: Provide measured activation value, entry: CC(=O)Nc1cc(-c2ccccc2N(C)C)cn2c(-c3ccc(F)c(Cl)c3)cnc12
Result: 1.24

* * *

Test: FXN promoter activators, primary screen, cell-based, luciferase luminescence, HEK293 lucGAA850 (AID 540364);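 also: 0% = DMSO wells and 100% = 10 µM SAHA wells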
Conditions: HEK293 lucGAA850 FXN promoter luciferase reporter, 24 h; at 6 µM; active compounds read high; percent of 10 µM SAHA response
The campaign covered roughly 360,000 compounds. About 2,000 (0.56%) were called active. The list comes from a sample in which actives are over-represented; it also holds close analogues and randomly drawn compounds.
PARAMETER MEASURED: activation (%)
Answers are plain numbers, in %.

{"columns": ["MOLECULE", "PARAMETER MEASURED", "UNIT TAG", "OBS VALUE"],
 "data": [
  ["O=C(NC1CCCC1)c1cc(-c2ccccc2)on1", "activation", "%", 8.61]
]}

Field: activation. Fill in for each record below.
1. O=C(NCc1ccco1)c1ccc(Cn2c(=O)c3sccc3n(Cc3ccc(F)cc3)c2=O)cc1
2. Cc1ccc(C(=O)NNc2ncnc3ccccc23)cc1
3. CCc1ccc(N(C(=O)c2csnn2)C(C(=O)NC2CCCCC2)c2ccncc2)cc1 (stereo not given)
4. CC(C)(C)NC(=O)C(c1ccco1)N(Cc1ccc2c(c1)OCO2)C(=O)Cn1nnc2ccccc21 (stereo not given)
5. Cc1ccc(C(=O)NNC(=O)c2cc3cc4ccccc4nc3s2)cc1

Result:
1. 15.4
2. 7.73
3. 8.57
4. -3.64
5. -0.4

* * *

Assay: FXN promoter activators, primary screen, cell-based, luciferase luminescence, HEK293 lucGAA850 (AID 540364);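 also: 0% = DMSO wells and 100% = 10 µM SAHA wells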
Settings: HEK293 lucGAA850 FXN promoter luciferase reporter, 24 h; at 6 µM; active compounds read high; percent of 10 µM SAHA response
Screen size: about 360,000 compounds; about 2,000 (0.56%) were called active. Only a selection was taken, and actives are over-represented in it overall.
I'd appreciate it if you could supply activation values for the items below.
Numbers only, in %.

Look over these answered cases.
{"columns": ["COMPOUND", "UNIT TAG", "activation"],
 "data": [
  ["CC(Oc1ccccc1)C(=O)NN1Cc2ccccc2C1=N (centres undefined)", "%", 2.03],
  ["COc1cc2c(cc1CNC[C@H]1O[C@@H](n3cnc(C(N)=O)n3)[C@H](O)[C@@H]1O)OCO2", "%", -0.43],
  ["c1ccc2c(c1)OCC(c1nn3cnnc3s1)O2 (centres undefined)", "%", 3.93],
  ["CCC1(CC)Cc2ccccc2-c2nc(CCl)[nH]c(=O)c21", "%", 8.24]
]}

Field: activation. Fill in for each record below.
1. CCN(C[C@H]1N[C@@](CC)(C(=O)OC)[C@H]2C(=O)N(Cc3ccccc3)C(=O)[C@@H]12)S(=O)(=O)c1ccccc1
2. COc1ccc(NC(=O)CC2C(=O)OCC3CCCCN32)cc1Cl (centres undefined)
3. CCOc1ccc(Nc2oc(Cc3ccccc3)nc2C#N)cc1
4. COC(=O)[C@]1(Cc2ccccc2)N[C@H](CN(C)S(=O)(=O)c2ccc(OC(F)(F)F)cc2)[C@@H]2C(=O)N(Cc3ccccc3)C(=O)[C@@H]21
5. O=S(=O)(c1ccc(Sc2nnc3ccccn23)nc1)N1CCOCC1

Result:
[3.23, 3.58, 7.76, -3.69, -1.38]
